The reported numbers originate from paper PMC3903516.

Target Of Assay: CYP2A6*22 (Homo sapiens, UniProt P11509, D158E/L160I)
Construct: made in house; host or cells: E. coli (membrane fractions; pCW-CYP2A6*22 co-expressed with pACYC-OxR)
Sequence (P11509 whole entry D158E/L160I): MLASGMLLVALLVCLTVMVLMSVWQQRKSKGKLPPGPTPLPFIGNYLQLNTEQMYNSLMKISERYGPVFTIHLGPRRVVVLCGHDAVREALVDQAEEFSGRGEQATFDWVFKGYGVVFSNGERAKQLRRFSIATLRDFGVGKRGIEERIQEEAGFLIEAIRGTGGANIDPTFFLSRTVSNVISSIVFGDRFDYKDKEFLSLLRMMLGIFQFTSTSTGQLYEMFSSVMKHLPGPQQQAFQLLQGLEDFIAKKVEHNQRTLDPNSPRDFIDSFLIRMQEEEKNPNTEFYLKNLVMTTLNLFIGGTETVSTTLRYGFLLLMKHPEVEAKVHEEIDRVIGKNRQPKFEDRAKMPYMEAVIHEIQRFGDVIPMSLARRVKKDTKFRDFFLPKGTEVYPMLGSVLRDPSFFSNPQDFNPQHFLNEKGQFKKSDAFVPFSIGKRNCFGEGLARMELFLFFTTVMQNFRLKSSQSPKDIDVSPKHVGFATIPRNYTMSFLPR
Assay Comment: CYP2A6 inactivation assay (fluorescence-based coumarin 7-hydroxylase assay)
Assay type: biochemical
Measurement Parameters: pH 7.4, probe coumarin (10 µM; 7-hydroxylation), 8-MOP 1.0 µM, 10 min pre-incubation with NADPH generating system vs no pre-incubation, read-out: increased percentage in inhibition with pre-incubation
Measured Attribute: inhibition at 35 min, 1 µM (%)
Numeric answer only, unit % assumed.

Problem: Given `COc1c2occc2cc2ccc(=O)oc12` , state its recorded inhibition at 35 min, 1 µM.
Result: 23
